Measured values drawn from patent US20130184222A1 for this set.

- test system: IDH1 R132H (Homo sapiens, UniProt O75874, R132H)
- Sequence (O75874 whole entry R132H): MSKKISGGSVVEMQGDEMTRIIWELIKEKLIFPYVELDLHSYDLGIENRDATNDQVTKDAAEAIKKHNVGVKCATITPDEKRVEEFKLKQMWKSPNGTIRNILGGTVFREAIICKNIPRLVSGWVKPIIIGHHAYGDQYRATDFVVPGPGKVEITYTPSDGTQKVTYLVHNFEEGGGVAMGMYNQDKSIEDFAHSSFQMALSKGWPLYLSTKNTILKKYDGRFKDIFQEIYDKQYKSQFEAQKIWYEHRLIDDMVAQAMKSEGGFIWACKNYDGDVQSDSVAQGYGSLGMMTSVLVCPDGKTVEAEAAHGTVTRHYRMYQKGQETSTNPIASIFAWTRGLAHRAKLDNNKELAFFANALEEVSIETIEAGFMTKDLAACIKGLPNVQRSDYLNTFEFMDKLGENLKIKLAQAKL
- assay details: In vitro assay for IDH1 R132H inhibitors (NADPH/aKG, resazurin detection)
- Assay type: biochemical
- experimental conditions: Table 4A; 0.2 μg/ml IDH1 R132H, 50 minutes at room temperature; read-out: IC50 (uM), IDH1 R132H Inhibition
Below, each entry is listed alongside its reported IC50.

Worked cases, answers included:
| compound | IC50 |
| --- | --- |
| O=C(NC1CCCC1)C(c1ccccc1F)N(C(=O)Cc1cccs1)c1ccc2c(c1)OCO2 (centres unmarked) | 0.1 to 1 µM |
| O=C(NC1CCCCC1)C(c1ccccc1Cl)N(C(=O)Cc1cccs1)c1cccc(F)c1 (centres unmarked) | ≤ 0.1 µM |
| Cc1ccccc1N(C(=O)Cc1cccs1)C(C(=O)NC(C)(C)C)c1cccc(F)c1 (centres unmarked) | 10 to 100 µM |
| Cc1ccccc1C(C(=O)NC1CCCCC1)N(C(=O)Cc1cccs1)C(C)C (centres unmarked) | 10 to 100 µM |
| O=C(NC1CCCCC1)C(c1ccccc1)N(C(=O)Cc1cccs1)c1ccccc1 (centres unmarked) | 0.1 to 1 µM |

# value of IC50, IDH1 R132H (Homo sapiens, UniProt O75874, R132H), item O=C(NC1CCCCC1)C(C1CCCC1)N(C(=O)Cc1cccs1)c1cccc(F)c1 (centres unmarked) = 1 to 10 µM

Observed IC50, IDH1 R132H (Homo sapiens, UniProt O75874, R132H), Cc1ccccc1C(C(=O)NC1CCCCC1)N(C(=O)Cc1cccs1)c1cccc(F)c1 (centres unmarked) : ≤ 0.1 µM

# IC50 measured on IDH1 R132H (Homo sapiens, UniProt O75874, R132H) for item Cc1ccccc1C(C(=O)NC1CCCCC1)N(C(=O)Cc1cccs1)c1ccccc1 (centres unmarked) = 0.1 to 1 µM
